Please go through the items and note down their pKd.
# tested.on: RAF kinases (Homo sapiens, UniProt P04049)
# Sequence (P04049 whole entry): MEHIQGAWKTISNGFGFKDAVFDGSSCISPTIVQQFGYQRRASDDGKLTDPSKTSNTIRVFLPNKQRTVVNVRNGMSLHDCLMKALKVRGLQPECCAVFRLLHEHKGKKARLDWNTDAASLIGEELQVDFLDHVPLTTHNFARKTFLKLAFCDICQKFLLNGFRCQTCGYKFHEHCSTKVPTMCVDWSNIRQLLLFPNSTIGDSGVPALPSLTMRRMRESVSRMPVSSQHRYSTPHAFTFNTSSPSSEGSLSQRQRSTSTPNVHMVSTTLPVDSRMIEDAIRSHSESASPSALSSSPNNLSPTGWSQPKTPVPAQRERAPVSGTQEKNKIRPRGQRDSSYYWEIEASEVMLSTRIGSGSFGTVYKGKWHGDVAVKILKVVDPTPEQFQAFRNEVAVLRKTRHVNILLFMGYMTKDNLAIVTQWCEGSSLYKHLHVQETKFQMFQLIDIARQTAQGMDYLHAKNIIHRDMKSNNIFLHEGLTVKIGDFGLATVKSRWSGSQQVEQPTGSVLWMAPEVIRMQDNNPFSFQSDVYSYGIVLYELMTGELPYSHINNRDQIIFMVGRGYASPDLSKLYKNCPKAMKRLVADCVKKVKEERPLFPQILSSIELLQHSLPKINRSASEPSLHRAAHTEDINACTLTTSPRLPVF
# assay.summary: biochemical
pKd: −log10 of the molar value. Where a name gives a salt, the structure may show the parent alone.

Exercise: Provide pKd, system RAF kinases (Homo sapiens, UniProt P04049), entry COc1cc2ncnc(Sc3cccc(NC(=O)Nc4cc(C(F)(F)F)nn4-c4ccc(C)cc4)c3)c2cc1OC [Ex 199]
Solution: < 6.00

Exercise: Jot down pKd (RAF kinases (Homo sapiens, UniProt P04049)) of COc1cc2ncnc(Sc3cccc(NC(=O)Nc4cc(C(C)(C)C)on4)c3)c2cc1OCCN1CCN(CCO)CC1 [Ex 68] .
Solution: 6.30 to 6.60

Exercise: Answer briefly: pKd recorded on RAF kinases (Homo sapiens, UniProt P04049) for COc1cc2ncnc(Sc3cccc(NC(=O)Nc4cc(C(C)(C)C)on4)c3)c2cc1OCCCN1CCN(S(C)(=O)=O)CC1 [Ex 60]
Solution: 6.30 to 6.60

Exercise: Look up and report measured pKd (RAF kinases (Homo sapiens, UniProt P04049)) for the following molecule: CCOc1cc2ncnc(Oc3cccc(NC(=O)Nc4cc(C(C)(C)C)on4)c3)c2cc1OC [Ex 6, hydrochloride]
Solution: 6.00 to 6.30

Exercise: Jot down pKd (RAF kinases (Homo sapiens, UniProt P04049)) of COCCOc1cc2c(Sc3cccc(NC(=O)Nc4cc(C(C)(C)C)on4)c3)ncnc2cc1OC [Ex 45] .
Solution: 6.30 to 6.60

Exercise: Provide RAF kinases (Homo sapiens, UniProt P04049) pKd reading for COc1cc2ncnc(Oc3cccc(NC(=O)Nc4cc(C(F)(F)F)nn4-c4cccc(C)c4)c3)c2cc1OC [Ex 338] .
Solution: 6.30 to 6.60

Exercise: Name the value of pKd reported for COc1ccc(-n2nc(C(C)(F)F)cc2NC(=O)Nc2cccc(Oc3ncnc4cc(OC)c(OC)cc34)c2)cc1 [Ex 315] when tested on RAF kinases (Homo sapiens, UniProt P04049).
Solution: 6.00 to 6.30

Exercise: # return pKd of COc1cc2ncnc(Sc3cccc(NC(=O)Nc4cc(C(C)(C)C)on4)c3)c2cc1OCCN1CCC(CO)CC1 [Ex 66] (system: RAF kinases (Homo sapiens, UniProt P04049))
Solution: 6.00 to 6.30

Exercise: Recall the reported pKd of COCCOc1cc2ncnc(Sc3cccc(NC(=O)Nc4cc(C(C)(C)C)on4)c3)c2cc1OCCOC [Ex 53, hydrochloride] on RAF kinases (Homo sapiens, UniProt P04049) and write it down.
Solution: 6.30 to 6.60

Exercise: System RAF kinases (Homo sapiens, UniProt P04049). Read-out pKd. Item COc1cc2c(Sc3cccc(NC(=O)Nc4cc(C(C)(C)F)no4)c3)ncnc2cc1OCCN1CCOCC1 [Ex 248] . Report value.
Solution: 6.30 to 6.60

Exercise: Provide the reported pKd (system: RAF kinases (Homo sapiens, UniProt P04049)) for COc1ccc(-n2nc(C(C)(C)C)cc2NC(=O)Nc2cccc(Oc3ncnc4cc(OC)c(OC)cc34)c2)cc1 [Ex 361]
Solution: 6.00 to 6.30

Exercise: Under RAF kinases (Homo sapiens, UniProt P04049), report pKd for COCCOc1cc2ncnc(Oc3cccc(NC(=O)Nc4cc(C(C)(C)C)nn4C)c3)c2cc1OC [Ex 209]
Solution: < 6.00

Exercise: Supply pKd measured with RAF kinases (Homo sapiens, UniProt P04049) for COc1cc2ncnc(Oc3cccc(NC(=O)Nc4cc(C(C)(C)C)nn4-c4ccccc4)c3C)c2cc1OC [Ex 289] .
Solution: 6.00 to 6.30

Exercise: Find pKd for COc1cc2c(Sc3cccc(NC(=O)Nc4ccc(OC)c(C(F)(F)F)c4)c3)ncnc2cc1OCCN1CCOCC1 [Ex 249] on RAF kinases (Homo sapiens, UniProt P04049) and write it down.
Solution: 6.00 to 6.30

Exercise: Fill in: pKd on RAF kinases (Homo sapiens, UniProt P04049), entry COCCOc1cc2ncnc(Oc3cccc(NC(=O)Nc4cc(C(C)(C)C)on4)c3)c2cc1OCCOC [Ex 12, hydrochloride]
Solution: 6.30 to 6.60

Exercise: Provide pKd, system RAF kinases (Homo sapiens, UniProt P04049), entry COc1cc2c(Sc3cccc(NC(=O)Nc4cc(C(C)(C)C)on4)c3)ncnc2cc1OCCN1CCN(S(C)(=O)=O)CC1 [Ex 81]
Solution: 6.00 to 6.30

Exercise: Report value only: pKd, RAF kinases (Homo sapiens, UniProt P04049), COc1cc2ncnc(Oc3cccc(NC(=O)Nc4cc(C(C)(F)F)nn4-c4ccccc4)c3)c2cc1OC [Ex 318]
Solution: 6.30 to 6.60

Exercise: Provide pKd, recorded with RAF kinases (Homo sapiens, UniProt P04049), of COc1cc2c(Oc3cccc(NC(=O)Nc4cc(C(C)(C)C)on4)c3)ncnc2cc1O[C@@H]1CCN(C)C1 [Ex 99, mono acetate]
Solution: 6.30 to 6.60

Value source: patent US8618289B2
